# Test system: NCI-H460 lung
# PROTOCOL_DETAILS: NCI-60 one-dose screen, 48 h (100 = growth as untreated, 0 = no growth, -100 = all killed)
# CONDITION_SET: 10 µM unless noted
About 83,000 compounds went through this panel and 20% of them were active in at least one assay; those are over-represented in the sample as a whole.

[
  {
    "SMILES_STRING": "COC(=O)[C@H]1CCCN1C(=O)[C@H]1CCCN1C(=O)[C@H](Cc1c[nH]c2ccccc12)NC(=S)Nc1cc(C(F)(F)F)cc(C(F)(F)F)c1",
    "growth (%)": 22.1
  },
  {
    "SMILES_STRING": "O=C(Nc1ccc(Cl)cc1)c1cc2ccccc2cc1OP(=O)(O)O",
    "growth (%)": 14.2
  },
  {
    "SMILES_STRING": "Cc1ccc2nc(NC(=O)CSC(=S)N3CCN(c4ccccc4)CC3)sc2c1",
    "growth (%)": 112
  }
]
